Here's a batch of compounds along with measured pIC50 for Collagenase 3 (Homo sapiens, UniProt P45452).
Bear in mind: pIC50 is minus log10 of a mol/L concentration; give just that figure.

Field: example entries. Status: answers known.
- smiles.representation: "CC1(C)SCCN(S(=O)(=O)c2ccc(OCC#CCCCCN)cc2)[C@H]1C(=O)NO"
  pIC50: 8.15
- smiles.representation: "C#CCCOc1ccc(S(=O)(=O)N2CCSC(C)(C)[C@@H]2C(=O)NO)cc1"
  pIC50: 9.00
- smiles.representation: "CC(C)(C)OC(=O)NCC#CCOc1ccc(S(=O)(=O)N2CCSC(C)(C)[C@@H]2C(=O)NO)cc1"
  pIC50: 8.40
- smiles.representation: "CCCCC#CCOc1ccc(S(=O)(=O)N2CCSC(C)(C)[C@@H]2C(=O)NO)cc1"
  pIC50: 8.15
- smiles.representation: "CC1(C)SCCN(S(=O)(=O)c2ccc(OCC#CCN)cc2)[C@H]1C(=O)NO"
  pIC50: 8.10

Continue with the next compound.
Exercise: Entry under review: `CC1(C)SCCN(S(=O)(=O)c2ccc(OCC#CCCO)cc2)[C@H]1C(=O)NO` . Reported pIC50?
Solution: 7.85

----------
Biological target: Disintegrin and metalloproteinase domain-containing protein 17 (Homo sapiens, UniProt P78536)
Sequence (P78536 whole entry, the tested form may be a part): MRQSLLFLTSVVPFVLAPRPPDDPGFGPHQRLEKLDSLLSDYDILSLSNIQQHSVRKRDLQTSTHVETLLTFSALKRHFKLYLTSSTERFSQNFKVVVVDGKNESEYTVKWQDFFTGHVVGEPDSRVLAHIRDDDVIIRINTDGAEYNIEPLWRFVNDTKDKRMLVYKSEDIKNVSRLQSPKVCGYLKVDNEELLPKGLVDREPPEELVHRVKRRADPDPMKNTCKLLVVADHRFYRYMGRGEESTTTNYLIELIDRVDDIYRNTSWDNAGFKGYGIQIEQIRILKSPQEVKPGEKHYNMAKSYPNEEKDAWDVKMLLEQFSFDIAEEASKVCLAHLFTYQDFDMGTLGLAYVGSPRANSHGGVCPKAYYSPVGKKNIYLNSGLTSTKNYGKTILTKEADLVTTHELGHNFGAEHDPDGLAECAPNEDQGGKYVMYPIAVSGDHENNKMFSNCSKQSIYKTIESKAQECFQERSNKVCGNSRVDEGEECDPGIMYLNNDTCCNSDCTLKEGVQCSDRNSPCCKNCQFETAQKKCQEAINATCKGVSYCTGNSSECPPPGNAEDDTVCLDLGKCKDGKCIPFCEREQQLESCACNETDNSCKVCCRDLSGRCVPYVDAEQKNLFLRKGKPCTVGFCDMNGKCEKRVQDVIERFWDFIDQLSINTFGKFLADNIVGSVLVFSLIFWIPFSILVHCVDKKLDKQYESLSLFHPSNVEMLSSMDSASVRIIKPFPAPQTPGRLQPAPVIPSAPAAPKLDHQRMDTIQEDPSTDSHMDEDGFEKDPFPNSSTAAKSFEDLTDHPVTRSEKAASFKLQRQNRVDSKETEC
Assay: Inhibition of LPS-stimulated TNF production in THP cells at 1 uM
Format: functional, cell-based
assay.metric: inhibition (%)
Field format: number, assumed %, no unit text.

- smiles.representation: "CC1(C)SCCN(S(=O)(=O)c2ccc(OCC#CCCCCN)cc2)[C@H]1C(=O)NO"
  inhibition, %: 13

Exercise: Entry under review: `CC#CCOc1ccc(S(=O)(=O)N2C[C@H](CCO)SC(C)(C)[C@@H]2C(=O)NO)cc1` . Reported inhibition?
Solution: 74

Exercise: Next: `CC#CCOc1ccc(S(=O)(=O)N2C[C@H](CC(=O)O)SC(C)(C)[C@@H]2C(=O)NO)cc1`
Solution: 73

Exercise: Next: `CC(C)(C)OC(=O)NCCCCC#CCOc1ccc(S(=O)(=O)N2CCSC(C)(C)[C@@H]2C(=O)NO)cc1`
Solution: 40

Exercise: Next: `C/C=C/COc1ccc(S(=O)(=O)N2CCSC(C)(C)[C@@H]2C(=O)NO)cc1`
Solution: 50

----------
Assay: Bioavailability in mouse at 10 mg/kg
Format: ADME, organism-based
Conditions: in vivo
assay.metric: bioavailability (%)
Field format: number, assumed %, no unit text.

- smiles.representation: "CC#CCOc1ccc(S(=O)(=O)N2CCSC(C)(C)[C@@H]2C(=O)NO)cc1"
  reading.unit: "%"
  bioavailability: 71

Continue with the next compound.
Exercise: Entry under review: `CC1(C)SCCN(S(=O)(=O)c2ccc(OCC#CCO)cc2)[C@H]1C(=O)NO` . Reported bioavailability?
Solution: 24

----------
Target: Disintegrin and metalloproteinase domain-containing protein 17 (Homo sapiens, UniProt P78536)
Experiment: Inhibition of LPS-stimulated TNF production in THP cells at 3 uM
Assay type: functional, cell-based
Threshold check on inhibition: at or above 80% gives 1.0, strictly below gives 0.0.

Completed entries (count: 5):
- smiles.representation: "CC1(C)SCCN(S(=O)(=O)c2ccc(OCC#CCCCCO)cc2)[C@H]1C(=O)NO"
  assigned.class: 0.0
- smiles.representation: "CC1(C)SCCN(S(=O)(=O)c2ccc(OCC#CCCN)cc2)[C@H]1C(=O)NO"
  assigned.class: 0.0
- smiles.representation: "CC#CCOc1ccc(S(=O)(=O)N2C[C@H](CCO)SC(C)(C)[C@@H]2C(=O)NO)cc1"
  assigned.class: 1.0
- smiles.representation: "CCCCOc1ccc(S(=O)(=O)N2CCSC(C)(C)[C@@H]2C(=O)NO)cc1"
  assigned.class: 0.0
- smiles.representation: "CC1(C)SCCN(S(=O)(=O)c2ccc(OCC#CCCCO)cc2)[C@H]1C(=O)NO"
  assigned.class: 0.0

Exercise: Can `C#CC#CCOc1ccc(S(=O)(=O)N2CCSC(C)(C)[C@@H]2C(=O)NO)cc1` be said to have inhibition at or above 80%?
Solution: 1.0

Exercise: Next: `CC#CCOc1ccc(S(=O)(=O)N2C[C@H](CN)SC(C)(C)[C@@H]2C(=O)NO)cc1`
Solution: 1.0

Exercise: Next: `CC#CCOc1ccc(S(=O)(=O)N2C[C@H](CC(=O)O)SC(C)(C)[C@@H]2C(=O)NO)cc1`
Solution: 1.0

Exercise: Next: `CC1(C)SCCN(S(=O)(=O)c2ccc(OCC#CCCCCN)cc2)[C@H]1C(=O)NO`
Solution: 0.0
